- Test system: Bacillus subtilis
- procedure.text: Inhibition of N-terminal LgBiT-fused Bacillus subtilis NusB expressed in Escherichia coli BL21(DE3)pLysS interaction with C- terminal SmBiT-fused Bacillus subtilis NusE expressed in Escherichia coli BL21(DE3)pLysS at 100 uM preincubated for 10 mins followed by NusE addition and measured after 10 mins by nano-glo luciferase assay relative to control
# inhibition values compiled below

| smiles.text | inhibition / % |
| --- | --- |
| O=[N+]([O-])c1ccc(O)c(CNC2CCCCC2)c1 | 58.2 |
| O=[N+]([O-])c1ccc(O)c(CNc2cccc(Cl)c2)c1 | 34.9 |
| CC(C)(C)c1ccc(/N=C/c2cc([N+](=O)[O-])ccc2O)cc1 | 38.8 |
| C#Cc1cccc(/N=C/c2cc(C(=O)OC)ccc2O)c1 | 41.4 |
| O=[N+]([O-])c1ccc(O)c(CNc2ccc(Cl)cc2)c1 | 53.6 |
| C#Cc1cccc(/N=C/c2cccc([N+](=O)[O-])c2O)c1 | 87.7 |
